Value source: PubChem BioAssay AID2685

assay: qHTS Assay for Lipid Storage Modulators in Drosophila S3 Cells; settings: BODIPY lipid droplet fluorescence, 18-24 h, cells fed with added oleic acid; measured here: cell count max response;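 also: cells counted by Cell Tracker Red CMTPX staining in the red channel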
In all, about 320,000 compounds went through this assay and about 2,100 (0.66%) were called active. Inconclusive results (about 53%) are left out. The entries come from a sample that favours actives as a whole.
Readout Name: cell number change (%)

Compound Smiles: CCN(CC)S(=O)(=O)c1ccc(C(=O)NCCCN=C2NS(=O)(=O)c3ccccc32)cc1
Readout Name: cell number change
Measurement: 17.2

Compound Smiles: CCOc1ccc(NS(=O)(=O)c2c(C)nc3sccn3c2=O)cc1
Readout Name: cell number change
Measurement: -0.288

Compound Smiles: CN(c1ccccc1)S(=O)(=O)c1ccc(C(=O)NCc2ccccc2F)cc1
Readout Name: cell number change
Measurement: -21.4

Compound Smiles: O=C(NCCCN=C1NS(=O)(=O)c2ccccc21)c1ccc(S(=O)(=O)N2CCCCC2)cc1
Readout Name: cell number change
Measurement: -7.55

Compound Smiles: CCC/C(C)=N/NC(=O)c1ccccc1O
Readout Name: cell number change
Measurement: 9.25
